Target: T1, recombinant cynomolgus monkey PD-L1 expressed with a C-terminal mouse IgG2a Fc tag (cynomolgus monkey)
T1 construct: also called MfPD-L1-mFc; monkey PD-L1-mFc
T1 sequence (chain, as listed by the source limits assumed): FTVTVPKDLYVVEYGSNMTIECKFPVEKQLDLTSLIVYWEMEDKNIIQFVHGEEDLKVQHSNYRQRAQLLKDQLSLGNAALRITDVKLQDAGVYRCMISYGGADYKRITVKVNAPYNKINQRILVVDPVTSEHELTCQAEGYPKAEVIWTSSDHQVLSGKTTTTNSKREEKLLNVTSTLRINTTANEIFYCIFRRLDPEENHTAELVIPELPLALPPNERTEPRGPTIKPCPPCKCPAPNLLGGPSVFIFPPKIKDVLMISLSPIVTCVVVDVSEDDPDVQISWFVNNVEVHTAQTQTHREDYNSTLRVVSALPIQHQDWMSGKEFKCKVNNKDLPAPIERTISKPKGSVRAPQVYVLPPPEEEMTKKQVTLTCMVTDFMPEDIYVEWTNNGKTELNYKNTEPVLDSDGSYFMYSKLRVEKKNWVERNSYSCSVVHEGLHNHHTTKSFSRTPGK
Test: SPR (Biacore), mAb captured, 37C
Property measured: t1/2 (h)
Give just the number in h; leave the unit off.

Data request: Supply measured t1/2 of H1H8314N (antibody, V domains shown, human IgG1 Fc form (H1H prefix) of numerical identifier 8314) VH: EVQLVESGGGVVRPGGSLRLSCAASGFTFDDYGMTWVRQAPGRGLEWVSGIHWHGKRTGYADSVKGRFTISRDNAKKSLYLQMNSLKGEDTALYHCVRGGMSTGDWFDPWGQGTLVIVSS VL: DIQMTQSPSSLSASLGDRVTITCRASQSINSYLNWYQQKPGKAPKLLIYVASSLQSGVPSRFSGSGSGTEFTLTISNLQPEDFATYYCQQSYSTPPITFGQGTRLEIK in your reply.
Data returned: 2

Data request: Supply measured t1/2 of H1H9329P (antibody, V domains shown, human IgG1 Fc (H1H prefix)) VH: EVQLVESGGGLVQSGGSLRLSCAASGFTFSSYWMSWVRQAPGKGLEWVANIKQDGSEKYYVDSVKGRFTISRDNAKNSLYLQMNSLRADDTAVYYCARDDIVVVPAPMGYYYYYFGMDVWGQGTTVTVSS VL: DIQMTQSPSSLSASVGDRVTITCRASQGIRNDLGWYQQKPGKAPKRLIYAASSLQSGVPSRFSGSGSGTEFTLTISSLQPEDFATYYCLQHNSYPYTFGQGTKLEIK in your reply.
Data returned: 0.133

Data request: Supply measured t1/2 of H1H8323N (antibody, V domains shown, human IgG1 Fc form (H1H prefix) of numerical identifier 8323) VH: QVQLVQSGAEVKMPGSSVRVSCKASGGIFSSSTISWVRQAPGQGLEWMGEIIPVFGTVNYAQKFQDRVIFTADESTTTAYMELSSLKSGDTAVYFCARNWGLGSFYIWGQGTMVTVSS VL: EIVLTQSPGTLSLSPGERATLSCRASQSFNFNYLAWYQQKPGQAPRLLIYGASSRATGIPDRFSGSGSGTDFTLTINRLEPEDFGVFYCQQYESAPWTFGQGTKVEIK in your reply.
Data returned: 1.43

Data request: Supply measured t1/2 of H1H9336P (antibody, V domains shown, human IgG1 Fc (H1H prefix)) VH: EVQLVESGGGLVQPGRSLRLSCAASGFTFDDFAMHWVRQAPGKGLEWVSGISWTGGNMDYANSVKGRFTISREDAKNSLYLQMNSLRAADTALYYCVKDIRGIVATGGAFDIWGRGTMVTVSS VL: DIQMTQSPSSLSASVGDRVTISCRASQTISTYLNWFQQKPGKAPKLLIYVVSSLQSGVPSRFSGSGSGTDFTLTISSLQPEDFATYYCQQSYSTPFTFGPGTKVDIK in your reply.
Data returned: 4.18
